Task for the reader: assign each of the following molecules its reported Alloste ic enhan er (AE).
- measured.on: UniProt:P30542
- assay.overview: In vitro allosteric enhancer (AE) activity for adenosine A1 receptor at 50 uM

These recorded examples may help you get a feel for the data.
Param item = `COc1cccc(-c2ccc3c(c2)Cc2sc(N)nc2-3)c1` ; retrieve measured Alloste ic enhan er (AE).
64%

Can you check `Nc1nc2c(s1)Cc1cc(-c3ccccc3C(F)(F)F)ccc1-2` next?
50.1%

Give one value of Alloste ic enhan er (AE) per listed molecule.
1. Nc1nc2c(s1)Cc1cc(-c3cccc(Cl)c3)ccc1-2
2. Nc1nc2c(s1)Cc1cc(-c3cccs3)ccc1-2
3. Nc1nc2c(s1)Cc1cc(-c3cccc(O)c3)ccc1-2
4. COc1ccc2cc(-c3ccc4c(c3)Cc3sc(N)nc3-4)ccc2c1
5. Nc1nc2c(s1)Cc1cc(-c3cccc(F)c3)ccc1-2
6. Cc1ccc(C)c(-c2ccc3c(c2)Cc2sc(N)nc2-3)c1
7. Nc1nc2c(s1)Cc1cc(-c3cccc([N+](=O)[O-])c3)ccc1-2
8. COc1ccc(-c2ccc3c(c2)Cc2sc(N)nc2-3)cc1

["22.7%", "32%", "10%", "24.4%", "42.8%", "47.7%", "13%", "87%"]

Give one value of Alloste ic enhan er (AE) per listed molecule.
1. Nc1nc2c(s1)Cc1cc(-c3ccc(C(F)(F)F)cc3)ccc1-2
2. CN(C)c1ccc(-c2ccc3c(c2)Cc2sc(N)nc2-3)cc1
3. Nc1nc2c(s1)Cc1cc(-c3cccc(C(F)(F)F)c3)ccc1-2
4. COc1ccc(-c2ccc3c(c2)Cc2sc(N)nc2-3)c(OC)c1OC
5. Cc1ccccc1-c1ccc2c(c1)Cc1sc(N)nc1-2
6. Nc1nc2c(s1)Cc1cc(-c3ccc4c(c3)OCO4)ccc1-2

8.9%
81%
15.8%
64.5%
36.6%
82%

----------
- measured.on: UniProt:P30542
- assay.overview: Antagonist activity against adenosine A1 receptor
- Assay type: functional
- Design: concentration or dose not given beside the values
Task for the reader: assign each of the following molecules its reported Inhibition.

Param item = `COc1cccc(-c2ccc3c(c2)Cc2sc(N)nc2-3)c1` ; retrieve measured Inhibition.
19.3%

Can you check `Nc1nc2c(s1)Cc1cc(-c3ccc(C(F)(F)F)cc3)ccc1-2` next?
> 10%

Can you check `Nc1nc2c(s1)Cc1cc(-c3ccccc3F)ccc1-2` next?
13.2%

Can you check `Nc1nc2c(s1)Cc1cc(-c3ccccc3[N+](=O)[O-])ccc1-2` next?
8.3%

Can you check `Cc1cc(C)cc(-c2ccc3c(c2)Cc2sc(N)nc2-3)c1` next?
> 8.7%

Give one value of Inhibition per listed molecule.
1. COc1ccc(-c2ccc3c(c2)Cc2sc(N)nc2-3)c(OC)c1
2. COc1ccccc1-c1ccc2c(c1)Cc1sc(N)nc1-2
3. COc1cc(-c2ccc3c(c2)Cc2sc(N)nc2-3)cc(OC)c1OC
4. Nc1nc2c(s1)Cc1cc(-c3cccc([N+](=O)[O-])c3)ccc1-2

1. 16%
2. 43.5%
3. 11.8%
4. 8.3%

Give one value of Inhibition per listed molecule.
1. Nc1nc2c(s1)Cc1cc(-c3ccc(O)cc3)ccc1-2
2. Nc1nc2c(s1)Cc1cc(-c3ccc(Cl)c(Cl)c3)ccc1-2

36.7%
8%
